Numbers sourced from patent US20210238298A1.

# Test System: T1, CD40 (Ancell) (UniProt P25942 21-193)
# T1 construct: also called CD40-Fc (Ancell #504-820); not shown: Fc part, not described
# T1 sequence (P25942 21-193 limits assumed): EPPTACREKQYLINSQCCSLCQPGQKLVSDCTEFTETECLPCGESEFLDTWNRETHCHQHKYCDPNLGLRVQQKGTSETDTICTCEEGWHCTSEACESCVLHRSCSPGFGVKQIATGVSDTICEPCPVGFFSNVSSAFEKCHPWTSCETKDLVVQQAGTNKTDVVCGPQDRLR
# Test Details: ELISA
Readout Type: binding result

Binder	Readout Type	Result
anti-OX40 antibody 1524/1525 (antibody, V domains shown, Tested as IgG) VH: EVQLLESGGGLVQPGGSLRLSCAASGFTFGSYYMGWVRQAPGKGLEWVSSIGSYYGYTYYADSVKGRFTISRDNSKNTLYLQMNSLRAEDTAVYYCARHDYGALDYWGQGTLVTVSS VL: DIQMTQSPSSLSASVGDRVTITCRASQSISSYLNWYQQKPGKAPKLLIYAASSLQSGVPSRFSGSGSGTDFTLTISSLQPEDFATYYCQQYGPSGLFTFGQGTKLEIK	binding result	no binding
anti-OX40 antibody 1526/1527 (antibody, V domains shown, Tested as IgG) VH: EVQLLESGGGLVQPGGSLRLSCAASGFTFSGYSMYWVRQAPGKGLEWVSGIGYSGYGTYYADSVKGRFTISRDNSKNTLYLQMNSLRAEDTAVYYCARYYFHDYAAYSLDYWGQGTLVTVSS VL: DIQMTQSPSSLSASVGDRVTITCRASQSISSYLNWYQQKPGKAPKLLIYAASSLQSGVPSRFSGSGSGTDFTLTISSLQPEDFATYYCQQYGSDSLLTFGQGTKLEIK	binding result	no binding
